Entry source: patent US20240376056A1

Target: IL-17A/A (Homo sapiens)
Sequence (Q16552 24-155): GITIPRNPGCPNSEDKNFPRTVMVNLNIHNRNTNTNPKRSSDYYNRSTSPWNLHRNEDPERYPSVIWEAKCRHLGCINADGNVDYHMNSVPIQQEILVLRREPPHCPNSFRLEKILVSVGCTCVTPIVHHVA
Assay: HEK-Blue IL-17A/A inhibition assay (SEAP reporter)
Conditions: HEK-Blue cells (HEK 293 expressing IL-17RA, IL-17RC, Act1); IL-17A/A stimulation; 20 hours; SEAP read at A630; 4-parameter fit
parameter: IC50

Lab note: IL-17A/A (Homo sapiens) assay, enter IC50 for CCn1nccc1C(=O)N[C@H](C(=O)Nc1cc(C(F)(F)F)c(C(C)C(=O)NC(CO)C(F)(F)F)cc1F)C(C1CC1)C1CC1 (single isomer, unassigned) [Compound 241] here
> 1000 nM

Lab note: IL-17A/A (Homo sapiens) assay, enter IC50 for CC(C)n1nccc1C(=O)N[C@H](C(=O)Nc1ccc([C@H](C)C(=O)NCC(F)(F)F)cc1F)C(C1CC1)C1CC1 [Compound 82] here
< 100 nM

Lab note: IL-17A/A (Homo sapiens) assay, enter IC50 for CCn1nccc1C(=O)N[C@H](C(=O)Nc1ccc([C@H](C)C(=O)N(C)CC(F)(F)F)cc1F)[C@H]1CCc2ccccc21 [Compound 90] here
100 to 1000 nM

Lab note: IL-17A/A (Homo sapiens) assay, enter IC50 for CC(C)n1nccc1C(=O)N[C@H](C(=O)Nc1ccc([C@H](C)C(=O)N2C[C@H](F)C[C@H]2C(F)(F)F)cc1F)C(C1CC1)C1CC1 [Compound 58] here
100 to 1000 nM

Lab note: IL-17A/A (Homo sapiens) assay, enter IC50 for CC(C)n1nccc1C(=O)N[C@H](C(=O)Nc1ccc([C@H](C)C(=O)N(CC(F)(F)F)CC(F)(F)F)cc1F)C(C1CC1)C1CC1 [Compound 42] here
100 to 1000 nM

Lab note: IL-17A/A (Homo sapiens) assay, enter IC50 for CC(C(=O)N1CCCN1)c1ccc(NC(=O)[C@@H](NC(=O)c2ccnn2C(C)C)C(C2CC2)C2CC2)c(F)c1 (stereo partly drawn) [Compound 235] here
> 1000 nM

Lab note: IL-17A/A (Homo sapiens) assay, enter IC50 for CC(C)n1nccc1C(=O)N[C@H](C(=O)Nc1ccc([C@H](C)C(=O)N2CC(O)CC2C(F)(F)F)cc1F)C(C1CC1)C1CC1 (single isomer, unassigned) [Compound 142] here
< 100 nM

Lab note: IL-17A/A (Homo sapiens) assay, enter IC50 for CC(C(=O)NCC(F)(F)F)c1cc(F)c(NC(=O)[C@@H](NC(=O)c2ccnn2C)C(C2CC2)C2CC2)cc1OC(F)(F)F (stereo partly drawn) [Compound 258] here
< 100 nM

Lab note: IL-17A/A (Homo sapiens) assay, enter IC50 for Cc1cc(NC(=O)[C@@H](NC(=O)c2ccnn2C(C)C)C(C2CC2)C2CC2)c(F)cc1[C@H](C)C(=O)NCC(F)(F)F (single isomer, unassigned) [Compound 98] here
< 100 nM

Lab note: IL-17A/A (Homo sapiens) assay, enter IC50 for CC(C)n1nccc1C(=O)N[C@H](C(=O)Nc1ccc([C@H](C)C(=O)N2CC(F)CC2C(F)(F)F)cc1F)C(C1CC1)C1CC1 (stereo partly drawn) [Compound 47] here
< 100 nM

Lab note: IL-17A/A (Homo sapiens) assay, enter IC50 for CC(C)n1nccc1C(=O)N[C@H](C(=O)Nc1ccc([C@H](C)C(=O)N2CC(O)CC2C(F)(F)F)cc1F)C(C1CC1)C1CC1 (single isomer, unassigned) [Compound 143] here
100 to 1000 nM

Lab note: IL-17A/A (Homo sapiens) assay, enter IC50 for Cc1cc(NC(=O)[C@@H](NC(=O)c2ccnn2C(C)C)C(C2CC2)C2CC2)c(F)cc1C(C)C(=O)N1CC(O)CC1C(F)(F)F (single isomer, unassigned) [Compound 200] here
100 to 1000 nM

Lab note: IL-17A/A (Homo sapiens) assay, enter IC50 for CC(C)n1nccc1C(=O)N[C@H](C(=O)Nc1ccc(C(C(=O)NCC(F)(F)F)N2CCOCC2)cc1F)C(C1CC1)C1CC1 (single isomer, unassigned) [Compound 140] here
> 1000 nM

Lab note: IL-17A/A (Homo sapiens) assay, enter IC50 for CCn1nccc1C(=O)N[C@H](C(=O)Nc1ccc([C@H](C)C(=O)N2CCC[C@@H]2C(F)(F)F)cc1F)C(C1CC1)C1CC1 [Compound 9] here
> 1000 nM

Lab note: IL-17A/A (Homo sapiens) assay, enter IC50 for CC(C(=O)NCC(F)(F)F)c1cc(F)c(NC(=O)[C@@H](NC(=O)c2ccnn2C(C)C)C(C2CC2)C2CC2)cc1Cl (single isomer, unassigned) [Compound 109] here
100 to 1000 nM

Lab note: IL-17A/A (Homo sapiens) assay, enter IC50 for CC(C(=O)NCC(F)(F)F)c1cc(F)c(NC(=O)[C@@H](NC(=O)c2ccnn2C(C)C)C(C2CC2)C2CC2)cc1C(F)(F)F (stereo partly drawn) [Compound 169] here
< 100 nM

Lab note: IL-17A/A (Homo sapiens) assay, enter IC50 for CCn1nccc1C(=O)N[C@H](C(=O)Nc1ccc(CC(=O)N(C)C2(C(F)(F)F)CC2)cc1F)C1CCCCCC1 [Compound 5] here
> 1000 nM

Lab note: IL-17A/A (Homo sapiens) assay, enter IC50 for CC(C)n1nccc1C(=O)N[C@H](C(=O)Nc1ccc([C@H](C)C(=O)N(CCN)CC(F)(F)F)cc1F)C(C1CC1)C1CC1 [Compound 139] here
100 to 1000 nM
